system: CCK-A (Rattus norvegicus, UniProt P30551)
Sequence (P30551 whole entry): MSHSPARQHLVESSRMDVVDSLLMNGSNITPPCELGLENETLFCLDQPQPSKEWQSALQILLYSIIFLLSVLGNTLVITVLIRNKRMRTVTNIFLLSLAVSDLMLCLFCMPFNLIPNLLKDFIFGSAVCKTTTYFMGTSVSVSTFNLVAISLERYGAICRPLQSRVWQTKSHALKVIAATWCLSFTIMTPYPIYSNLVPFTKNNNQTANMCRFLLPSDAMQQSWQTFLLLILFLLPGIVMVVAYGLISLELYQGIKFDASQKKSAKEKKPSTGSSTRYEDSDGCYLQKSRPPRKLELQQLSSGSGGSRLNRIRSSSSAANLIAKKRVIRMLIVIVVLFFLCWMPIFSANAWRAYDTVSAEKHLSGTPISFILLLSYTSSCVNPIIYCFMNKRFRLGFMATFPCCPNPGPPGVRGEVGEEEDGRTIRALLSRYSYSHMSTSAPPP
experiment notes: Displacement of 125I-CCK-OP binding to rat pancreatic membranes (CCK-A binding)
condition label: 125I-CCK-OP
Listing of recorded IC50 by entry.
// return numeric value only (unit: µM, not printed)

O=C(Nc1ccc(Cl)c(Cl)c1)N[C@H]1C(=O)N(c2ccccc2)C[C@H]1C(=O)O (relative stereo) [Example 36 (cis)]: 0.1
O=C(N[C@H]1C(=O)N(c2ccccc2)C[C@H]1C(=O)O)c1ccc(Cl)c(Cl)c1 (relative stereo) [Example 35 (cis)]: 0.058
O=C(N[C@H]1C(=O)N(c2ccccc2)C[C@H]1C(=O)O)c1cc2ccccc2[nH]1 (relative stereo): 0.017
O=C(N[C@@H]1C(=O)N(c2ccccc2)C[C@H]1C(=O)O)c1cc2ccccc2[nH]1 (relative stereo): 0.32

For the next question, use this compound.
The reported value for CCCCCN1C[C@@H](C(=O)O)[C@@H](NC(=O)Nc2ccc(Cl)c(Cl)c2)C1=O (relative stereo) in terms of IC50 is 0.35

* * *

Record set of IC50 for target or system CCK-A (Rattus norvegicus, UniProt P30551).
Counter-ions that a name gives are not always drawn.
Write the value in µM as a bare number.

Below, 3 compounds whose answers are already recorded.
O=C(N[C@@H]1C(=O)N(c2ccccc2)C[C@H]1C(=O)O)c1ccc(Cl)cc1 (relative stereo) [Example 46 (trans)]: 41
O=C(N[C@@H]1C(=O)N(c2ccccc2)C[C@@H]1C(=O)O)c1ccc2ccccc2c1 (relative stereo) [41 cis]: 0.015
CCCCCN1C[C@@H](C(=O)O)[C@@H](NC(=O)c2cnc3ccccc3c2)C1=O (relative stereo) [Example 27, monohydrochloride]: 0.25

Now look at this one.
IC50 for CCK-A (Rattus norvegicus, UniProt P30551) with input O=C(N[C@H]1C(=O)N(c2ccccc2)C[C@H]1C(=O)O)c1ccc(Cl)cc1 (relative stereo) [Example 46 (cis)] equals 1.6

* * *

system: CCK-B (Cavia porcellus)
Sequence (H0VZC5 1-426): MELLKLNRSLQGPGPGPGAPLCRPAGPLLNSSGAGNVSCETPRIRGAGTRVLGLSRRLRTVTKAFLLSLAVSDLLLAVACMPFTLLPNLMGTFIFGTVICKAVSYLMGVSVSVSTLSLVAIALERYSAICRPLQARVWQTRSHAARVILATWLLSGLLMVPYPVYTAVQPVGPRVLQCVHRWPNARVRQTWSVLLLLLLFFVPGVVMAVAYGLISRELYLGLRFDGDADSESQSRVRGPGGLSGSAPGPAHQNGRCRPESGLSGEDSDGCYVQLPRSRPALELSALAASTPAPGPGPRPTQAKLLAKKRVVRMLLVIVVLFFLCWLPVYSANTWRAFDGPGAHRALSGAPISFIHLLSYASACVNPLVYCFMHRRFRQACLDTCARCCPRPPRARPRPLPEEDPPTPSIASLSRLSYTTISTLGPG
Where a name gives a salt, the structure may show the parent alone.
assay metric: IC50

Use these answered entries as a reference point.
CCCCCN1C[C@@H](C(=O)O)[C@@H](NC(=O)c2cnc3ccccc3c2)C1=O (relative stereo) [Example 27, monohydrochloride]: > 10 µM
O=C(Nc1ccc(Cl)c(Cl)c1)N[C@H]1C(=O)N(c2ccccc2)C[C@H]1C(=O)O (relative stereo) [Example 36 (cis)]: 10 µM
CCCCCN1C[C@@H](C(=O)O)[C@@H](NC(=O)Nc2ccc3ccccc3c2)C1=O (relative stereo): 10 µM
O=C(N[C@@H]1C(=O)N(c2ccccc2)C[C@H]1C(=O)O)c1ccc(Cl)cc1 (relative stereo) [Example 46 (trans)]: > 10 µM
O=C(Cc1c[nH]c2ccccc12)N[C@@H]1C(=O)N(c2ccccc2)C[C@H]1C(=O)O (relative stereo): > 10 µM

# ---- query compound ----
Given item O=C(N[C@@H]1C(=O)N(c2ccccc2F)C[C@@H]1C(=O)O)c1cnc2ccccc2c1 (relative stereo) , the value recorded as its IC50 is > 10 µM
